Some molecules, each annotated with its measured inhibition.
Biological target: Testis-specific serine/threonine-protein kinase 2 (Homo sapiens);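 further: values are mean inhibition of TSSK2 activity from the GSK PKIS profiling panel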
Sequence (whole entry): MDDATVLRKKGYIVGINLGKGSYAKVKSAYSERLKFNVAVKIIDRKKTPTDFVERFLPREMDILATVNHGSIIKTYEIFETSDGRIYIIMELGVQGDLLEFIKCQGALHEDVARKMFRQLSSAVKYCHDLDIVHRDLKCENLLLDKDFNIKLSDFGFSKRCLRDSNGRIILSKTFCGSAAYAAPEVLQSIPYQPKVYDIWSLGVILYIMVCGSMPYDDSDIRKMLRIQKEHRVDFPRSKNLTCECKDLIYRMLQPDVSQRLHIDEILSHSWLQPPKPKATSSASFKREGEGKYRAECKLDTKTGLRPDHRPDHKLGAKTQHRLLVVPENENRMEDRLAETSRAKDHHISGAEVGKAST
Details: at 0.1 µM
readout-name: inhibition (%)

cpd-smiles | tgt | value-reported
CCS(=O)(=O)c1ccc(OC)c(Nc2ncc(-c3cccc(OC)c3)o2)c1 | Testis-specific serine/threonine-protein kinase 2 (Homo sapiens) | 1.31
Cc1ccc(NC(=O)CC2CC2)cc1-c1ccc(C(=O)NCC2CC2)cc1 | Testis-specific serine/threonine-protein kinase 2 (Homo sapiens) | 2.59
COc1cc(/C=N/Nc2ncnc3c2cnn3C(C)C)ccc1O | Testis-specific serine/threonine-protein kinase 2 (Homo sapiens) | 0.77
COc1ccc2ncnc(Nc3ccc(OCc4ccccc4)cc3)c2c1 | Testis-specific serine/threonine-protein kinase 2 (Homo sapiens) | 0.6
CC(C)c1ccc2c(c1)NC(=O)/C2=N/Nc1ccc(S(N)(=O)=O)cc1 | Testis-specific serine/threonine-protein kinase 2 (Homo sapiens) | 0.12
CN(C)C(=O)O[C@H]1CN[C@H](C#Cc2cc3ncnc(Nc4ccc(OCc5cccc(F)c5)c(Cl)c4)c3s2)C1 | Testis-specific serine/threonine-protein kinase 2 (Homo sapiens) | 0.42
Nc1ccc(C#Cc2cncnc2Nc2ccc(OCc3cccc(F)c3)c(Cl)c2)cc1 | Testis-specific serine/threonine-protein kinase 2 (Homo sapiens) | 1.11
ON=C1CCc2cc(-c3nc(C4CCNCC4)[nH]c3-c3ccncc3)ccc21 | Testis-specific serine/threonine-protein kinase 2 (Homo sapiens) | -0.31
CCOc1nccc2c1nc(-c1nonc1N)n2CC | Testis-specific serine/threonine-protein kinase 2 (Homo sapiens) | 2.77
Cc1ccc2c(-c3ccnc(Nc4cccc(C(F)(F)F)c4)n3)c(-c3ccccc3)nn2n1 | Testis-specific serine/threonine-protein kinase 2 (Homo sapiens) | 1.4
Cc1ccc(Nc2ccnc(Nc3cccc(C(N)=O)c3)n2)cc1O | Testis-specific serine/threonine-protein kinase 2 (Homo sapiens) | 1.39
Nc1nccc(-c2c(-c3ccc(F)cc3)ncn2CCCN2CCOCC2)n1 | Testis-specific serine/threonine-protein kinase 2 (Homo sapiens) | 2.07
CS(=O)(=O)Nc1cccc(-c2ccc3c(NC(=O)C4CC4)n[nH]c3c2)c1 | Testis-specific serine/threonine-protein kinase 2 (Homo sapiens) | 0.02

###

Test system: Leucine-rich repeat serine/threonine-protein kinase 2 (Homo sapiens), Q5S007 [G2019S]
Sequence (Q5S007 whole entry G2019S): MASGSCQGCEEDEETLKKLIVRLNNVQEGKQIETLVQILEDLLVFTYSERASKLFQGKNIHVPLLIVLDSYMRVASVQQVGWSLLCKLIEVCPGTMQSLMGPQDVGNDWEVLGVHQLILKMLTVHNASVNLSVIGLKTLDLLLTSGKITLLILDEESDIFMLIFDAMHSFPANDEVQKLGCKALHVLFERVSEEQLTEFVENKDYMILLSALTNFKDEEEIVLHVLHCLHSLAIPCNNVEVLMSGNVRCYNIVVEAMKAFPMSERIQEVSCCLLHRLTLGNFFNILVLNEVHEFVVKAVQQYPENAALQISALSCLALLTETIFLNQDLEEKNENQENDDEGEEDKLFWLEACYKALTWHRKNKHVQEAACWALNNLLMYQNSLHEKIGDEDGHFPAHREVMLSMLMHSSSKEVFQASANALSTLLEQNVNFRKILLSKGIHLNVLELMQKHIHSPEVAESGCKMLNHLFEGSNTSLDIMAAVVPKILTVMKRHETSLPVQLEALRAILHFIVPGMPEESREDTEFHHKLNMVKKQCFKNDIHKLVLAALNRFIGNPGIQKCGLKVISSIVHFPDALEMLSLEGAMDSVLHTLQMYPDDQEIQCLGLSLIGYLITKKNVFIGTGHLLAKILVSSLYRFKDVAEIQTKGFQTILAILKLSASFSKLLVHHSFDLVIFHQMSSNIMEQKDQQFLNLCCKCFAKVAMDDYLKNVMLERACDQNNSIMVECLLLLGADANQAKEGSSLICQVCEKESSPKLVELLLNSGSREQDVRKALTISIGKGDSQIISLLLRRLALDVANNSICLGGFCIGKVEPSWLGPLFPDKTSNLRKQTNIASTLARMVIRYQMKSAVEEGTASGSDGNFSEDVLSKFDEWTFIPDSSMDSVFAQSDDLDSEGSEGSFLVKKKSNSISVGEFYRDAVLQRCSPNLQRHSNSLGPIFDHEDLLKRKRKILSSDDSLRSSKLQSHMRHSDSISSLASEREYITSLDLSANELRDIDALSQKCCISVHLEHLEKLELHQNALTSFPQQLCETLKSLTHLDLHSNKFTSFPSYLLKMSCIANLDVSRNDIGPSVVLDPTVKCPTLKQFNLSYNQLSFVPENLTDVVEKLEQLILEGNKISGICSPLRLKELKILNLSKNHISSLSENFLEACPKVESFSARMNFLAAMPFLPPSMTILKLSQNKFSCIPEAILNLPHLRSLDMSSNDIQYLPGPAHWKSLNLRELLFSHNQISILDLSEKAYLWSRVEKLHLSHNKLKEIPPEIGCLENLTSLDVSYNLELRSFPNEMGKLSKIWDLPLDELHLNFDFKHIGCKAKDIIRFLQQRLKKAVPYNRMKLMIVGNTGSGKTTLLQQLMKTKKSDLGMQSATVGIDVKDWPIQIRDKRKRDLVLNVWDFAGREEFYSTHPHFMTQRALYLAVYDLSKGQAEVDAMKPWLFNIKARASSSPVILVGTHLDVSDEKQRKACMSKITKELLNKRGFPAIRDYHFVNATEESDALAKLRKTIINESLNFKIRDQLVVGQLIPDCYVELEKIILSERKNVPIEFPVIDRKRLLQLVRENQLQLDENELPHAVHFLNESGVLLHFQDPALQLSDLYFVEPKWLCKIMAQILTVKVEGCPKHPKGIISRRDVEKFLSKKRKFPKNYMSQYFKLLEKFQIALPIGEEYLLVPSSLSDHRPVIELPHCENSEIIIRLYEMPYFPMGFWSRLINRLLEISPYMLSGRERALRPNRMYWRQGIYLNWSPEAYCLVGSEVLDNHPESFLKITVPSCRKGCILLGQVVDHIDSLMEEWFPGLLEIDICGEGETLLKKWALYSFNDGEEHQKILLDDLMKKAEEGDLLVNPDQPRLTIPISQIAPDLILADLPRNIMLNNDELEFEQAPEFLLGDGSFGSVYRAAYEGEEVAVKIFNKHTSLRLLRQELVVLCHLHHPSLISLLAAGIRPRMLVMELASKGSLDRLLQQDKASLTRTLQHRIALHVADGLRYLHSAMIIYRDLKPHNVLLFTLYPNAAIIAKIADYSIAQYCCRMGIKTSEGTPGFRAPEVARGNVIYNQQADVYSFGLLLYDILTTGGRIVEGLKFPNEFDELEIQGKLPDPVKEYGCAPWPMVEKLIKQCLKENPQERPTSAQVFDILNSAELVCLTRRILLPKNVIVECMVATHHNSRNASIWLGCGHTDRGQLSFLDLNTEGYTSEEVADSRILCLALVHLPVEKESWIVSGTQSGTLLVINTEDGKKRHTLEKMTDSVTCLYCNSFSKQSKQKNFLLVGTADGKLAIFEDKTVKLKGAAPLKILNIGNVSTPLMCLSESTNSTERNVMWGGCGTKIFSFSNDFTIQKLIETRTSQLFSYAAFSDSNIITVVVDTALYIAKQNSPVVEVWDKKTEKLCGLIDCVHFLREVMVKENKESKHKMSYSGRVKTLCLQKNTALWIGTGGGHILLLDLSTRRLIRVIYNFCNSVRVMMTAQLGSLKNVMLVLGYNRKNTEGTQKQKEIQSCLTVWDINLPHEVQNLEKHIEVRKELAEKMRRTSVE
Conditions: at 0.1 µM
Decide by inhibition: equal to or exceeding 3% means YES, less means NO.

cpd-smiles | tgt | qualitative-label
CS(=O)(=O)Nc1cccc(-c2ccc3c(NC(=O)C4CC4)n[nH]c3c2)c1 | Leucine-rich repeat serine/threonine-protein kinase 2 (Homo sapiens), Q5S007 [G2019S] | NO
CN1CCN(C(=O)c2ccc(NC(=O)Nc3ccc(N(C)c4ccnc(Nc5ccc(CS(C)(=O)=O)cc5)n4)cc3)cc2)CC1 | Leucine-rich repeat serine/threonine-protein kinase 2 (Homo sapiens), Q5S007 [G2019S] | YES
Cc1nc(-c2ccccc2)n2nc(NCCCN3CCOCC3)ncc12 | Leucine-rich repeat serine/threonine-protein kinase 2 (Homo sapiens), Q5S007 [G2019S] | NO
Cc1ccc2c(c1)/C(=N/Nc1ccc(S(N)(=O)=O)cc1)C(=O)N2 | Leucine-rich repeat serine/threonine-protein kinase 2 (Homo sapiens), Q5S007 [G2019S] | YES
COC(=O)c1cncc(/C=C/c2c(C)cc(O)cc2C)c1 | Leucine-rich repeat serine/threonine-protein kinase 2 (Homo sapiens), Q5S007 [G2019S] | NO
